- TGT: Histamine H2 receptor (Cavia porcellus)
- MEASUREMENT PROTOCOL: Histamine H2 receptor agonistic activity in guinea pig right atrium
- Assay type: functional, tissue-based
- RECORDED CONDITIONS: Cardiac atrium
MEASURED PROPERTY: pD2
One number for each entry.

>>> numeric_readout("NCCc1cnc(N)s1")
5.51
>>> numeric_readout("N=C(N)NCCCc1c[nH]cn1")
4.7
>>> numeric_readout("N=C(NCCCc1c[nH]cn1)NCCC(c1ccccc1)c1ccccc1")
7.7
>>> numeric_readout("NCCc1csc(N)n1")
4.6
>>> numeric_readout("Cc1ncsc1CCN")
4.67

Give one value of pD2 per listed compound.
1. CN(C)CCCSC(=N)N
2. N=C(NCCCc1c[nH]cn1)NCCC(c1ccc(F)cc1)c1ccccn1 (stereo not drawn)
3. Cc1nc(C)c(CCN)s1

Return:
1. 5.67
2. 8
3. 3.78

Attribution: ChEMBL document CHEMBL1126304
